study-target: Chloroplast thylakoid membrane protein (psbA) (Chenopodium album)
experiment: Selectivity ratio of I50 for photosynthetic electron transport protein complex in atrazine-resistant Chenopodium album thylakoid to I50 for photosynthetic electron transport protein complex in wild type Chenopodium album thylakoid
Recorded measurements of Selectivity ratio, one per entry
Lab note: record the figure alone, no unit after it.

The cases that follow already have their Selectivity ratio on record.
compound_structure=CCOC(=O)c1nc(C)nc(NC(C)C)n1 study_target="Chloroplast thylakoid membrane protein (psbA) (Chenopodium album)" observation_type="Selectivity ratio" number=2.45
compound_structure=CCNc1nc(Cl)nc(NC(C)C)n1 study_target="Chloroplast thylakoid membrane protein (psbA) (Chenopodium album)" observation_type="Selectivity ratio" number=324
compound_structure=Cc1nc(NCc2ccccc2)nc(C(F)(F)F)n1 study_target="Chloroplast thylakoid membrane protein (psbA) (Chenopodium album)" observation_type="Selectivity ratio" number=2.6
compound_structure=CCOC(=O)c1nc(C)nc(NCc2ccccc2)n1 study_target="Chloroplast thylakoid membrane protein (psbA) (Chenopodium album)" observation_type="Selectivity ratio" number=0.98
compound_structure=C#CCNc1nc(C)nc(C(=O)OCC)n1 study_target="Chloroplast thylakoid membrane protein (psbA) (Chenopodium album)" observation_type="Selectivity ratio" number=1.23

Retrieve Selectivity ratio on Chloroplast thylakoid membrane protein (psbA) (Chenopodium album); query Cc1nc(NCc2ccccc2)nc(C(F)F)n1
2.5
